- measurementTarget: T1, NativeRPtag(large)_with_Tags_and_Cys (Thermoanaerobacter tengcongensis)
- T1 chain: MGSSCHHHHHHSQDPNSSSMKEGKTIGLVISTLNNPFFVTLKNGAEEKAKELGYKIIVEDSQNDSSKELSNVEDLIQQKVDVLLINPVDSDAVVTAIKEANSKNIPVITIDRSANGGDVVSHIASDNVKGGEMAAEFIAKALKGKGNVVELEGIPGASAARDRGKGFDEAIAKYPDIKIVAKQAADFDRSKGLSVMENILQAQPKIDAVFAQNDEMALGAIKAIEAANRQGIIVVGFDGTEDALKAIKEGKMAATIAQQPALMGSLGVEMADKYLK
- method: fluorescence anisotropy; BME (10%)
measuredEndpoint: pKd
pKd here: minus log base 10 of the concentration, concentration in moles per litre.

Problem: Entry PAELKLITK (modifications not checked) [RPtag(small) Nd8, Cd4] has what pKd?
Result: 6.13
